- Method Description: self-splicing fitness, log relative to wild type (ln ratio); higher = more splicing; Tetrahymena group I intron in knt gene, E. coli kanamycin selection, DiMSum; sequences stand for … in CUCUCU…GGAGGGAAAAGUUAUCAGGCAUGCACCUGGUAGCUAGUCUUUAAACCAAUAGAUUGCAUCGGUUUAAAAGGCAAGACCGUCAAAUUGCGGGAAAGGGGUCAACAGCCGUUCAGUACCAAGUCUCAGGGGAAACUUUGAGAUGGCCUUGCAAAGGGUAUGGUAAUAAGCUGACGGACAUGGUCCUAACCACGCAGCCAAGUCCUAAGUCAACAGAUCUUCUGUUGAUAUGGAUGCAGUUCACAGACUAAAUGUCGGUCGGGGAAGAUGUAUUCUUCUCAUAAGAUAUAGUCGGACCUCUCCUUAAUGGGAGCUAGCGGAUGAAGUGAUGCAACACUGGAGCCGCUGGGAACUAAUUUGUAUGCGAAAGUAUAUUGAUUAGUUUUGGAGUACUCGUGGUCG;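 further: selection with 25 µg/mL kanamycin versus none on LB agar overnight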
- Condition Description: 37 °C
Listed sequences paired with reported self-splicing fitness (ln)

The following sequences have reported results that may help.
QUERY: Which self-splicing fitness (ln) value is on record for GGUGAGCAAUAUUACGACUA ?
RESULT: -0.327

QUERY: Which self-splicing fitness (ln) value is on record for UUAGAGCAAUAUUACGGGCA ?
RESULT: -1.54

QUERY: Which self-splicing fitness (ln) value is on record for CACUAGCAAUAUUACGUUGG ?
RESULT: -2.03

New cases:
QUERY: Which self-splicing fitness (ln) value is on record for UUGCAGCAAUAUUACGUAUG ?
RESULT: -1.11

QUERY: Which self-splicing fitness (ln) value is on record for AACGAGCAAUAUUACGUCAA ?
RESULT: -3.35

QUERY: Which self-splicing fitness (ln) value is on record for CCAGAGCAAUAUUACGAUGU ?
RESULT: -1.83

QUERY: Which self-splicing fitness (ln) value is on record for AGUUAGCAAUAUUACGUAGA ?
RESULT: -1.59

QUERY: Which self-splicing fitness (ln) value is on record for ACGUAGCAAUAUUACGGGUA ?
RESULT: -0.928
